These data points were gathered from paper PMC9045277.

molecular target: ClpP (Staphylococcus aureus); construct: pET28a-clpP, purified from E. coli BL21(DE3); experiment: biochemical; conditions: read-out: Relative inhibition rate (%)
Sequence (Q2G036 whole entry): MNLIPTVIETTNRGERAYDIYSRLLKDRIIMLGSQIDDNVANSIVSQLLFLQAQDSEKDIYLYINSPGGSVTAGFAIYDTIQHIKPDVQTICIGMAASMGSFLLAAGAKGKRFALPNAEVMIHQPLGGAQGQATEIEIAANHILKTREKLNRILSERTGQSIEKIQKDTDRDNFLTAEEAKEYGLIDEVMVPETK
QUANTITY MEASURED: inhibition at 64 µg/mL (%)
Quick note: give the figure in %, leave out the unit.

Recorded results for 6 compounds are shown here.
# COMPOUND, OUTPUT UNIT, inhibition at 64 µg/mL
measured = [
    ("C[C@@H]1O[C@@H](O[C@H]2C(=O)c3c(O)cc(O)cc3O[C@@H]2c2ccc(O)c(O)c2)[C@H](O)[C@H](O)[C@H]1O", "%", 9.1),
    ("COc1ccc(-c2cc(=O)c3c(O)c(OC)c(O)c(OC)c3o2)cc1", "%", 59.1),
    ("O=c1c(O[C@@H]2O[C@H](CO)[C@@H](O)[C@H](O)[C@H]2O[C@@H]2O[C@H](CO)[C@@H](O)[C@H](O)[C@H]2O)c(-c2ccc(O)c(O)c2)oc2cc(O)cc(O)c12 [Baimaside]", "%", 25.1),
    ("COc1ccc(-c2cc(=O)c3c(O)c(OC)c(O[C@@H]4O[C@H](CO[C@@H]5O[C@@H](C)[C@H](O)[C@@H](O)[C@H]5O)[C@@H](O)[C@H](O)[C@H]4O)cc3o2)cc1", "%", 28.3),
    ("O=C(CCCCc1ccc2c(c1)OCO2)N1CCCCC1 [Tetrahydropiperine]", "%", 24.5),
    ("O=C(O)[C@H]1O[C@@H](Oc2cc3oc(-c4ccccc4)cc(=O)c3c(O)c2O)[C@H](O)[C@@H](O)[C@@H]1O", "%", 27.3),
]

Consider now this further compound.
Enquiry: Indicate the recorded inhibition at 64 µg/mL value for this compound: CC(C)=CCc1c(O)ccc(C(=O)/C=C/c2ccc(O)cc2)c1O
Return: 97.6

---

target: ClpP (Staphylococcus aureus); construct: pET28a-clpP, purified from E. coli BL21(DE3); assay: biochemical; settings: read-out: Relative inhibition rate (%);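 further: ClpP peptidase activity measured as fluorescence (ex 360 nm, em 465 nm) from cleavage of Suc-LY-AMC substrate at 100 µM, 30 min at 32°C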
QUANTITY MEASURED: inhibition at 64 µg/mL (%)
Quick note: give the figure in %, leave out the unit.

Recorded results for 5 compounds are shown here.
# COMPOUND, QUANTITY MEASURED, OUTPUT UNIT, NUMERIC RESULT
rows = [
    ("CC(C)=CCc1cc2c(cc1O)O[C@H](c1ccc(O)cc1)CC2=O", "inhibition at 64 µg/mL", "%", 21.7),
    ("Nc1[nH]c(=O)nc2c1ncn2[C@@H]1O[C@H](CO)[C@@H](O)[C@H]1O [Crotonoside]", "inhibition at 64 µg/mL", "%", 28.1),
    ("O=c1cc(-c2ccc(O)cc2)oc2c([C@@H]3O[C@H](CO)[C@@H](O)[C@H](O)[C@H]3O)c(O)c([C@@H]3O[C@H](CO)[C@@H](O)[C@H](O)[C@H]3O)c(O)c12", "inhibition at 64 µg/mL", "%", 48.2),
    ("CC(=O)OCC1=C[C@@H]2OC(=O)C3=CO[C@@H](O[C@@H]4O[C@H](CO)[C@@H](O)[C@H](O)[C@H]4O)[C@H]1[C@@H]32 [Asperuloside]", "inhibition at 64 µg/mL", "%", 17.4),
    ("C[C@@H]1CC[C@@]2(OC1)O[C@H]1C[C@H]3[C@@H]4CC[C@H]5C[C@@H](O)CC[C@]5(C)[C@H]4CC[C@]3(C)[C@H]1[C@@H]2C", "inhibition at 64 µg/mL", "%", 12.3),
]

Consider now this further compound.
Enquiry: Indicate the recorded inhibition at 64 µg/mL value for this compound: O=c1c(-c2ccc(O)cc2)coc2cc(O[C@@H]3O[C@H](CO)[C@@H](O)[C@H](O)[C@H]3O)cc(O)c12
Return: 22.1
